Assay: Binding affinity to I2 imidazoline binding site in rat brain membrane
Type: cell membranes

compound	operatorSymbol	pKi
Brc1ccccc1OCC1=NCCN1	=	7.9
CC(Oc1ccccc1OC1CC1)C1=NCCN1 (stereo not drawn)	<	6
C=CCc1ccccc1OCC1=NCCN1	=	8.88
CCCc1ccccc1OCC1=NCCN1	=	8.25
c1ccc(OC2CC2)c(OCC2=NCCN2)c1	<	6
c1ccc(C2CC2)c(OCC2=NCCN2)c1	=	8.35
c1ccc2oc(C3=NCCN3)cc2c1	=	8.89
c1ccc(OCC2=NCCN2)c(CC2CC2)c1	=	6.9
CC(Oc1ccccc1C1CC1)C1=NCCN1 (stereo not drawn)	<	6
CCCc1ccccc1OC(C)C1=NCCN1 (stereo not drawn)	<	6
CC(Oc1ccccc1Br)C1=NCCN1 (stereo not drawn)	<	6
CC(Oc1ccccc1CC1CC1)C1=NCCN1 (stereo not drawn)	<	6
C=CCc1ccccc1OC(C)C1=NCCN1 (stereo not drawn)	<	6
